The measurements presented in this section are drawn from patent US12233161B1.

assay: Particle size and PDI of nucleic acid lipid nanoparticle preparations by dynamic light scattering; assay type: physicochemical; conditions: DMG-PEG2000:DSPC:Chol:compound 1.40:11.15:38.95:48.50, N/P 30
Particle size (nm) values by entry
Dear colleague, please return just the value in nm, with no unit written.

# molecule, Particle size (nm)
records = [
    ("CCCCCCCC/C=C\\CCCCCCCCNC(=O)C(O)CN(CCCN(C)CCCN(CC(O)C(=O)NCCCCCCCC/C=C\\CCCCCCCC)CC(O)C(=O)NCCCCCCCC/C=C\\CCCCCCCC)CC(O)C(=O)NCCCCCCCC/C=C\\CCCCCCCC (centres unmarked)", 117.83),
    ("CCCCCCCCCCOC(=O)C(O)CN(CCCN(CC(O)C(=O)OCCCCCCCCCC)CC(O)C(=O)OCCCCCCCCCC)CCCN(CC(O)C(=O)OCCCCCCCCCC)CC(O)C(=O)OCCCCCCCCCC (centres unmarked)", 126.63),
    ("CCCCCCCCCCCCNC(=O)C(O)CNCCCN(C)CCCNCC(O)C(=O)NCCCCCCCCCCCC (centres unmarked)", 132.40),
    ("CCCCCCOC(C)OCCCCCCOC(=O)C(O)CN(CCCN(C)CCCN(CC(O)C(=O)OCCCCCCOC(C)OCCCCCC)CC(O)C(=O)OCCCCCCOC(C)OCCCCCC)CC(O)C(=O)OCCCCCCOC(C)OCCCCCC (centres unmarked)", 125.9),
]

Please look at the following molecule next.
Identify measured Particle size (nm) associated with CCCCCCCCCCNC(=O)C(O)CN(CCCN(CCCN(CC(O)C(=O)NCCCCCCCCCC)CC(O)C(=O)NCCCCCCCCCC)C(CO)CO)CC(O)C(=O)NCCCCCCCCCC (centres unmarked) 137.37
